- Tested target: recombinant human PI3Kγ (aa144-1102)-6His (Homo sapiens (Human), UniProt P48736)
- Sequence (P48736 144-1102): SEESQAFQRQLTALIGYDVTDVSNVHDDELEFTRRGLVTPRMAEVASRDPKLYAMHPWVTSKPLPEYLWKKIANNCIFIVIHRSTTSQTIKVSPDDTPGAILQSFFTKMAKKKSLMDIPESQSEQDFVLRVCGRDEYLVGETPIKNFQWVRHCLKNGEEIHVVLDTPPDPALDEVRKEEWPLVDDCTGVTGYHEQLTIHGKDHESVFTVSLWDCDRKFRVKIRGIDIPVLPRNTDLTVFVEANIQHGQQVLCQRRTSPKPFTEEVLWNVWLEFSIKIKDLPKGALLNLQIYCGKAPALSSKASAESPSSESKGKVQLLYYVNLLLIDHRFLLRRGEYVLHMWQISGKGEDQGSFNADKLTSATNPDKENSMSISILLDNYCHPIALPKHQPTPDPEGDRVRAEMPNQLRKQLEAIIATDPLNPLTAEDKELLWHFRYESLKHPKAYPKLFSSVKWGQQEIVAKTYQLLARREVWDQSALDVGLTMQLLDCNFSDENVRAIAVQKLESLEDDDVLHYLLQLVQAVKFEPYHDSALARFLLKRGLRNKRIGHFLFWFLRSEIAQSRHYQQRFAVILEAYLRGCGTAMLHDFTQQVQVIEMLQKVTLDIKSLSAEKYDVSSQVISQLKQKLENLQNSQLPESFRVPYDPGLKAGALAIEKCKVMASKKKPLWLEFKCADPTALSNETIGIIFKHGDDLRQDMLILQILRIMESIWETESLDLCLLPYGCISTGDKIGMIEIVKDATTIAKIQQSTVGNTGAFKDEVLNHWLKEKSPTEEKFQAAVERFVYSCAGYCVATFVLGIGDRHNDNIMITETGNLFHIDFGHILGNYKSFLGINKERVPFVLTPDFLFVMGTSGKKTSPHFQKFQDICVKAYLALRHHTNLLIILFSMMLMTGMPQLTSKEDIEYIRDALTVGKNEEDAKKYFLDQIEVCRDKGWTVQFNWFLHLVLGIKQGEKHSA
- Assay comment: Test A: Enzymatic Activity Assay for Rec Human PI3Kγ (ADP-Glo)
- Assay type: biochemical
- Condition label: 20 μM ATP, 80 μM DiC8-PIP2, 1.2 nM PI3Kγ, 15 min pre-incubation, 60 min reaction; read-out: PI3Kγ activity, pIC50 (converted)
- Protocol: Pharmacological Activity Test A: Enzymatic Activity Assay for Rec Human PI3Kγ The activity of recombinant human PI3Kγ (aa144-1102)-6His was determined by measuring the ADP level after phosphorylation of DiC8-PIP2 using a commercially available ADP-Glo™ kit from Promega. […] Prior to detection 6 μl of ADP-Glo™ Kinase Detection Reagent was added and the plates were read in a micro plate reader using a Luminescence filter.
Test readout: IC50 (nM)

CC(=O)Nc1ncc(-c2cc3c(c(S(N)(=O)=O)c2)C(=O)N([C@@H](C)C2CC2)C3)s1
1.26

[a] CC(=O)Nc1ncc(-c2cc3c(c(NS(C)(=O)=O)c2)C(=O)N([C@@H](C)C2CC2)C3)s1
[b] CNS(=O)(=O)c1cc(-c2sc(NC(C)=O)nc2Cl)cc2c1C(=O)N([C@@H](C)C1CC1)C2
[c] CC(=O)Nc1nc(C)c(-c2cc3c(c(S(=O)(=O)NCC4(CF)CC4)c2)C(=O)N([C@@H](C)C2CC2)C3)s1
Highest IC50 first, then in falling order down to the smallest. List the labels according to the requested ordering.
b, a, c
